PROTOCOL DETAILS: yeast transport mutant growth inhibition pilot in 384-well plates, post-Golgi transport modulator project (AID 636)
SETUP CONDITIONS: absorbance 615 nm, about 18 h, stronger effect = higher value
Assignment: determine reported inhibition for the given compounds.
Supply the numeric figure in %, leaving out any unit text.

CCN1CCCC1CNC(=O)c1cc2c(=O)n(C)c3ccccc3c2n1C (stereo not given) yielded inhibition of -0.4

"COc1cccc(CNC(=O)CCS(=O)(=O)c2cccc3nsnc23)c1" yielded inhibition of -7.67

O=C(Cn1nc(Cc2cccnc2)c2ccccc2c1=O)NCC1CCCO1 (stereo not given) yielded inhibition of -3.33

"O=C(CN1C(=O)c2ccccc2S1(=O)=O)NCc1ccccc1Cl" yielded inhibition of -2.05

"O=C(CCn1c(=O)oc2ccccc21)NCc1ccco1" yielded inhibition of -3.47

COc1ccc(OC)c(C(C)NC=O)c1 (stereo not given) yielded inhibition of -6.89

"COc1cc2c(cc1OC)CN(C(=O)CSc1nc3[nH]ncc3c(=O)n1-c1ccccc1)CC2" yielded inhibition of -4.93

"Cc1cc(C)cc(NC(=O)CSc2nnc(Cc3cccn3C)n2-c2ccc(F)cc2)c1" yielded inhibition of -1.2

Cn1ccnc1C(O)c1ccco1 (stereo not given) yielded inhibition of -5.39

CC(C)c1ncc(C(O)c2cccc3ccccc23)n1C (stereo not given) yielded inhibition of -4.68

"O=C(Nc1ccc2c(c1)OCCO2)NC1CCCCC1" yielded inhibition of -4.27

O=C(NC1CCCc2ccccc21)c1ccc(CNc2c(N3CCOCC3)c(=O)c2=O)cc1 (stereo not given) yielded inhibition of 1.79

COc1cc(C2NC(=O)NC(C)=C2C(=O)OCC2CCCO2)ccc1O (stereo not given) yielded inhibition of -6.08

"O=C(CCNS(=O)(=O)c1cccc2nsnc12)Nc1ccc2c(c1)OCCO2" yielded inhibition of -7.95

"O=C(CCN1C(=O)c2ccccc2C1=O)Nc1ccc(F)cc1" yielded inhibition of -1.95

"Cc1ccnc(SCCn2c(N3CCN(Cc4ccccc4)CC3)nc3c2c(=O)[nH]c(=O)n3C)n1" yielded inhibition of -3.6

"CCOC(=O)N1CCN(c2cc(=O)n(-c3ccccc3Cl)c(=O)[nH]2)CC1" yielded inhibition of 0.27

"Cc1cc(C)nc(NC2=NCC(=O)N2c2ccccc2Br)n1" yielded inhibition of -7.07

"CCOc1ccccc1C(=O)Nc1nnc(CC)s1" yielded inhibition of -1.73

"Brc1ccccc1-c1nc(-c2ccccc2)no1" yielded inhibition of -2.6

"Cc1ccc(NC(=O)CN(c2ccc3c(c2)OCO3)S(=O)(=O)c2c(C)n[nH]c2C)cc1" yielded inhibition of -5.73

CCOC(=O)CSC1=C(C#N)C(c2ccc(C)o2)CC(=O)N1 (stereo not given) yielded inhibition of -4.4

"COc1cc(C(=O)NCCc2ccc3c(c2)OCCO3)ccc1OCC(=O)N1CCOCC1" yielded inhibition of -5.95

"Cc1noc(C(=O)Nc2ccc3c(c2)OCO3)c1Cl" yielded inhibition of -4.13

"O=C(OCn1nnc2ccccc2c1=O)c1cc2ccccc2o1" yielded inhibition of -5.47

CN1C(=O)C(O)(CC(=O)c2ccccc2O)c2cc(Br)ccc21 (stereo not given) yielded inhibition of -4.53

"c1ccc2c(c1)nc(NC1CCCCC1)c1nncn12" yielded inhibition of -5

"CC(=O)Nc1ccc(S(=O)(=O)Nc2nc3c(s2)CCCC3)cc1" yielded inhibition of -8.93

COc1ccc(C2C(C#N)=C(C)NC3=C2C(=O)CC(C)(C)C3)c(OC)c1 (stereo not given) yielded inhibition of -1.3

"COc1ccc(S(=O)(=O)NCc2ccc3c(c2)OCO3)cc1C(=O)O" yielded inhibition of -4.36

"Cc1nnc(N(Cc2ccco2)C(=O)c2cccc(C#N)c2)s1" yielded inhibition of -1.69

"COCCn1c(=N)c(C(=O)NCCc2ccccc2)cc2c(=O)n3cccc(C)c3nc21" yielded inhibition of -0.38

COC(=O)c1ccccc1NC1c2ccccc2C(=O)N1c1cccnc1 (stereo not given) yielded inhibition of 1.07

"Cc1ccc(-c2cc(C(F)F)n3ncc(C(=O)N4CCN(c5ccccn5)CC4)c3n2)cc1" yielded inhibition of -6.4

"COc1ccccc1N1CCN(C(=O)c2cc(C3CC3)on2)CC1" yielded inhibition of -0.64

CC1(C)CC2CC(C)(CN2S(=O)(=O)c2ccc(N)cc2)C1 (stereo not given) yielded inhibition of -8.93

"COCCNC(=O)CN(C)S(=O)(=O)c1ccc(Br)cc1" yielded inhibition of -6.27

"CCOC(=O)c1cc2c(=O)n3ccccc3nc2n(Cc2ccccc2)c1=N" yielded inhibition of -4.86

Cc1ccc(C)c(NC(=O)C2CCC(C)(C(=O)O)C2(C)C)c1 (stereo not given) yielded inhibition of 2.08

"Cc1ccc(C)c(N2C(=O)CN=C2Nc2ccccc2Cl)c1" yielded inhibition of -1.95

"CCOC(=O)CCc1c(C)nc2cc(-c3ccc(F)cc3)[nH]n2c1=O" yielded inhibition of -5.45

"Cc1nnc(SCC(=O)NCc2ccccc2)s1" yielded inhibition of -1.43

"COc1cc(C(=O)Nc2cccc(-c3nncn3C)c2)cc(OC)c1OC" yielded inhibition of -2.31

"CCOC(=O)N1CCN(C(=O)c2ccc(CS(=O)(=O)c3c(Cl)cccc3Cl)o2)CC1" yielded inhibition of -3.07

"COCCCNC(=O)c1ccc(CS(=O)(=O)c2ccc(OC)cc2)o1" yielded inhibition of -4

* * *

Assignment: determine reported inhibition for the given compounds.
PROTOCOL DETAILS: growth suppression of yeast trafficking mutant, preliminary HTS, modulators of trafficking downstream of Golgi apparatus project, 1536-format plate, OD 615 nm (AID 637)
SETUP CONDITIONS: yeast transport mutant growth, absorbance 615 nm, 18 h; stronger effect = higher value
Activity calls are given as the source filed them. Rule as the data show it: active = inhibition above about 30%; inactive = the rest.

CCn1c(C(C#N)/C(=N\S(=O)(=O)c2cccs2)c2ccccc2)nc2ccccc21 (stereo not drawn) yielded inhibition of -1.15% (inactive)

"O=C(CSc1ccc2nnc(-c3ccccc3)n2n1)N1CCN(c2ccccc2)CC1" yielded inhibition of 7.67% (inactive)

"CCN(CC)C(=O)c1ccc(CS(=O)(=O)c2ccc(OC)cc2)o1" yielded inhibition of -6% (inactive)

"CCOC(=O)N1CCN(C(=O)CN(C2CCCCC2)S(=O)(=O)c2ccc(F)cc2)CC1" yielded inhibition of -4.36% (inactive)

"C=CCOc1ccc(/C(CC)=N/O)c(OC)c1" yielded inhibition of 0.5% (inactive)

"O=C(c1ccco1)c1nnn(Cc2ccccc2)c1-c1ccccc1" yielded inhibition of -4.73% (inactive)

CCOc1ccc(C2CC(c3cccc(OC)c3)Nc3nc(N)nn32)cc1 (stereo not drawn) yielded inhibition of 5.5% (inactive)

"COc1ccccc1CC(=O)Nc1ccc(OC)c(OC)c1" yielded inhibition of 5.74% (inactive)

"COc1ccc(C(=O)Oc2c(CN3CCOCC3)cc(Cl)c3cccnc23)cc1OC" yielded inhibition of -6.23% (inactive)

"Cc1ccc(SCC(=O)NCCN2C(=O)CSC2=O)c(C)c1" yielded inhibition of -0.83% (inactive)

COc1ccc(C2c3c(oc4ccccc4c3=O)C(=O)N2c2ccc(C)cn2)cc1OC (stereo not drawn) yielded inhibition of -7.5% (inactive)

"Cc1cccc(-n2ncc3c(NCCCO)ncnc32)c1" yielded inhibition of -2.5% (inactive)

"Cc1cc(C(N)=O)c2cc(Br)ccc2n1" yielded inhibition of 0.49% (inactive)

"O=C(Cn1ncc2c(=O)oc3ccccc3c21)NCCCN1CCCC1=O" yielded inhibition of -3% (inactive)

Cc1c(C(=O)OCCOC(C)C)[nH]c2c1C(=O)CC(c1ccco1)C2 (stereo not drawn) yielded inhibition of -4.59% (inactive)

"Cc1cc(C)nc(SCc2csc(N)n2)n1" yielded inhibition of -2.67% (inactive)

"Cc1nonc1NC(=O)c1ccccc1Br" yielded inhibition of -1.64% (inactive)

"Cc1ccc(C(=O)Nc2ccc(Cl)cn2)cc1S(=O)(=O)N1CCOCC1" yielded inhibition of 5% (inactive)

"CC(=O)Nc1nc(-c2ccccc2)nc(C)c1C(C)=O" yielded inhibition of -2.22% (inactive)

CCOC(=O)N1CCC(N2C(=O)c3ccccc3C2Nc2cc(Cl)c(OC)cc2OC)CC1 (stereo not drawn) yielded inhibition of 0.83% (inactive)

"Cc1ccccc1-c1nc(CN2CCC(C(=O)NC3CCN(Cc4ccccc4)CC3)CC2)c(C)o1" yielded inhibition of 3% (inactive)

"CCS(=O)(=O)c1nc2ccccc2n1Cc1ccccc1Cl" yielded inhibition of 5.33% (inactive)

"CCCN1CCN(C(=O)c2cn(CC(C)C)c(=O)c3cc(OC)c(OC)cc23)CC1" yielded inhibition of 4.92% (inactive)

* * *

PROTOCOL DETAILS: viability of HCT116 without oncogenic beta-catenin – human colon tumor cells, pilot screen (AID 823);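 also: 0% = wells killed by 20 µM Hyamine and 100% = untreated DMSO cell wells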
SETUP CONDITIONS: HCT116 beta-catenin knockout viability, CellTiter-Glo, 60 h; at 10 µM
Records with an inconclusive call do not appear. Activity calls are given as the source filed them.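 How the source made its calls: active means cell viability at or below a set limit in both duplicate runs, the limit being the all-compound median minus 4 SD (cut at about 23% in these data, passing the limit was not always enough); inconclusive means no clear call, values can overlap the other calls; inactive means the rest.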
Hi there, use one of these labels in your reply, thanks! active, inactive

Identify the outcome logged in this assay for the compound shown: NC(=O)C1CCN(CCCNC2CC(=O)N(Cc3ccc(N4CCCC4=O)cc3)C2=O)CC1 (stereo not given)
inactive

Identify the outcome logged in this assay for the compound shown: "COc1ccc(C(=O)c2ccc(OC)c(N)c2)cc1N"
active

Identify the outcome logged in this assay for the compound shown: "COc1cccc2sc(Nc3nnc(-c4ccccc4Cl)o3)nc12"
active

Identify the outcome logged in this assay for the compound shown: CCOc1ccc(C2CC(c3cccc(OC)c3)Nc3nc(N)nn32)cc1 (stereo not given)
inactive

Identify the outcome logged in this assay for the compound shown: "CCCn1c(CN2CCN(C(=O)c3ccco3)CC2)nc2c1c(=O)n(C)c(=O)n2C"
inactive

Identify the outcome logged in this assay for the compound shown: "O=C(CSc1nnnn1-c1ccccc1Cl)Nc1ccc2c(c1)OCCO2"
inactive

Identify the outcome logged in this assay for the compound shown: CCOC(=O)C1CCN(C(c2cccc(OC)c2)c2sc3nc(C)nn3c2O)CC1 (stereo not given)
inactive

Identify the outcome logged in this assay for the compound shown: COC(=O)C1(C)Nc2ccccc2C(=O)N1c1ccccc1C (stereo not given)
inactive

Identify the outcome logged in this assay for the compound shown: CN(C)CCN1C(=O)C(O)=C(C(=O)c2cc3ccccc3o2)C1c1ccc(N(C)C)cc1 (stereo not given)
inactive

Identify the outcome logged in this assay for the compound shown: COc1ccc(C2C(C(=O)Nc3cccnc3)=C(C)Nc3nc(-c4cccs4)nn32)cc1OC (stereo not given)
inactive

Identify the outcome logged in this assay for the compound shown: "Cc1ccccc1-c1c(C)oc2cc(O)ccc2c1=O"
inactive

Identify the outcome logged in this assay for the compound shown: "CC(C)c1ccc(OC(=O)NCCO)cc1"
inactive

Identify the outcome logged in this assay for the compound shown: CCOc1ccc(N(CC(=O)NC(C)CC)S(=O)(=O)c2c(C)noc2C)cc1 (stereo not given)
inactive

Identify the outcome logged in this assay for the compound shown: "COc1ccc(NC(=O)Nc2ccc(N3CCCC3=O)cc2)cc1OC"
inactive

Identify the outcome logged in this assay for the compound shown: "O=c1c2c3c(sc2nc2n1CCCCC2)CCCCC3"
inactive

Identify the outcome logged in this assay for the compound shown: "COc1ccc(N2CCN(CCNC(=O)CCS(=O)(=O)c3cccc4nsnc34)CC2)cc1"
inactive

Identify the outcome logged in this assay for the compound shown: "COCCCNC(=O)c1oc2ccc(S(=O)(=O)N(C)C3CCCCC3)cc2c1C"
inactive

Identify the outcome logged in this assay for the compound shown: "Cc1ccnc(SCCn2c(N3CCN(Cc4ccccc4)CC3)nc3c2c(=O)[nH]c(=O)n3C)n1"
inactive

Identify the outcome logged in this assay for the compound shown: "N#CC(=C1SC=CS1)c1nc(-c2ccccc2)cs1"
inactive

Identify the outcome logged in this assay for the compound shown: "COc1cc2c(cc1OC)CN(C(=O)CSc1nc3[nH]ncc3c(=O)n1-c1ccccc1)CC2"
inactive

Identify the outcome logged in this assay for the compound shown: "Cc1cc2ncn(C(=O)N3CCOCC3)c2cc1C"
inactive

Identify the outcome logged in this assay for the compound shown: "CN1CCN(C(=O)c2ccccc2NC(=O)Cc2ccccc2)CC1"
inactive

Identify the outcome logged in this assay for the compound shown: "Cc1cc(C)cc(NC(=O)CSc2nnc(Cn3c(=O)sc4ccccc43)n2C)c1"
inactive

Identify the outcome logged in this assay for the compound shown: "CCCCCCSc1cc(C)nc2ncnn12"
inactive

Identify the outcome logged in this assay for the compound shown: "COc1ccc(-n2nnnc2SCC(=O)N2CCOCC2)cc1"
inactive

Identify the outcome logged in this assay for the compound shown: "CCC(=O)Nc1ccc(C(=O)n2nc(C)cc2C)cc1"
inactive

Identify the outcome logged in this assay for the compound shown: CCOC(=O)N1CCN(C(=O)C2CCCN(Cc3nc(-c4ccc(Cl)cc4)oc3C)C2)CC1 (stereo not given)
inactive

Identify the outcome logged in this assay for the compound shown: "CC1(C)Cc2c(c(=S)nc(-c3ccccc3)n2CCCN2CCOCC2)CO1"
inactive

Identify the outcome logged in this assay for the compound shown: O=C(C1CCCN1S(=O)(=O)c1cccc2cccnc12)N1CCn2c1nc1ccccc12 (stereo not given)
inactive

Identify the outcome logged in this assay for the compound shown: Cc1ccc(C2N(c3ccc(F)cc3)C(=O)C3CCCN32)cc1 (stereo not given)
inactive

Identify the outcome logged in this assay for the compound shown: "Cn1c(SCC(=O)Nc2ccc(F)cc2)nnc1-c1cccnc1"
inactive

Identify the outcome logged in this assay for the compound shown: "COc1ccc(-n2c(Cc3cccn3C)nnc2SCC(=O)Nc2ccccc2)cc1"
inactive

Identify the outcome logged in this assay for the compound shown: CC1Cc2ccccc2C(=O)N1 (stereo not given)
inactive

Identify the outcome logged in this assay for the compound shown: "O=C(O)COc1ccc(S(=O)(=O)NCCc2ccccc2)cc1"
inactive

Identify the outcome logged in this assay for the compound shown: "CCOC(=O)CSc1nnc(Cn2c(=O)sc3ccccc32)n1C"
inactive

Identify the outcome logged in this assay for the compound shown: "CCOC(=O)CN1C(=O)C(=O)c2cccc(C)c21"
inactive

Identify the outcome logged in this assay for the compound shown: "O=C(c1ccc(CS(=O)(=O)c2ccc(Br)cc2)o1)N1CCN(C2CCCCC2)CC1"
inactive

Identify the outcome logged in this assay for the compound shown: "CCOC(=O)N1CCN(C(=O)CN(c2cc(Cl)ccc2OC)S(=O)(=O)c2ccccc2)CC1"
inactive

Identify the outcome logged in this assay for the compound shown: "COc1ccccc1NC(=O)N1CCN(c2cccc(C(F)(F)F)c2)CC1"
inactive

Identify the outcome logged in this assay for the compound shown: "O=C(NCc1cccnc1)c1cccc(S(=O)(=O)N2CCOCC2)c1"
inactive

Identify the outcome logged in this assay for the compound shown: "Cc1cc(C)n2nc(S(=O)(=O)N(C)c3ccccc3)nc2n1"
inactive

Identify the outcome logged in this assay for the compound shown: CCc1ccccc1N1CC23C=CC(O2)C(C(=O)O)C3C1=O (stereo not given)
inactive

Identify the outcome logged in this assay for the compound shown: CC(=O)c1ccc(OCC(O)CN2CCN(CCO)CC2)cc1 (stereo not given)
inactive

Identify the outcome logged in this assay for the compound shown: "O=C(CN1CCN(Cc2ccc(F)cc2Cl)C1=O)NCCCN1CCOCC1"
inactive

Identify the outcome logged in this assay for the compound shown: "Cc1cccc(NC(=O)CS(=O)(=O)c2cn(C)c3ccccc23)c1"
inactive
